assay: Dose normalised AUC in dog after po administration; conditions: in vivo
Binary label based on DNAUC with cut-off 50 kg·min/L: below gives yes (1), not below gives no (0).

[[record]]
molecule = "CC(C(=O)O)c1ccc(-c2ccccc2)c(F)c1 (stereo not given)"
group = "no (0)"

[[record]]
molecule = "CC[C@H]1OC(=O)[C@H](C)[C@@H](O[C@H]2C[C@@](C)(OC)[C@@H](O)[C@H](C)O2)[C@H](C)[C@@H](O[C@@H]2O[C@H](C)C[C@H](N(C)C)[C@H]2O)[C@](C)(O)C[C@@H](C)C(=O)[C@H](C)[C@@H](O)[C@]1(C)O"
group = "yes (1)"

[[record]]
molecule = "Cc1c(C)c2c(c(C)c1O)CCC(C)(COc1ccc(CC3SC(=O)NC3=O)cc1)O2 (stereo not given)"
group = "no (0)"

[[record]]
molecule = "CCC1(C)CC(=O)NC1=O (stereo not given) [ETHOSUXIMIDE]"
group = "no (0)"

[[record]]
molecule = "O=C(O)c1cn(C2CC2)c2cc(N3CCNCC3)c(F)cc2c1=O"
group = "yes (1)"

[[record]]
molecule = "Cc1ncc2n1-c1ccc(Cl)cc1C(c1ccccc1F)=NC2"
group = "yes (1)"

[[record]]
molecule = "Cc1cccc(C)c1NC(=O)NCCCNC(C)C"
group = "no (0)"

[[record]]
molecule = "COc1ccc(C(C)C)cc1CN[C@H]1C2CCN(CC2)[C@H]1C(c1ccccc1)c1ccccc1"
group = "yes (1)"

[[record]]
molecule = "CC1(C)O[C@@H]2C[C@H]3[C@@H]4C[C@H](F)C5=CC(=O)C=C[C@]5(C)[C@H]4[C@@H](O)C[C@]3(C)[C@]2(C(=O)CO)O1 [FLUNISOLIDE]"
group = "no (0)"

[[record]]
molecule = "O=P(O)(O)C(Sc1ccc(Cl)cc1)P(=O)(O)O"
group = "no (0)"

[[record]]
molecule = "CCN(CC)CC(=O)Nc1c(C)cccc1C"
group = "yes (1)"

[[record]]
molecule = "C[C@H](C(=O)O)c1ccc2oc(-c3ccc(F)cc3)nc2c1"
group = "no (0)"

[[record]]
molecule = "CC(C)n1c(/C=C/C(O)CC(O)CC(=O)O)c(-c2ccc(F)cc2)c2ccccc21 (stereo not given)"
group = "no (0)"

[[record]]
molecule = "COc1ccc(C(CN(C)C)C2(O)CCCCC2)cc1 (stereo not given)"
group = "yes (1)"

[[record]]
molecule = "CC(C(=O)O)c1ccc(C(=O)c2cccs2)cc1 (stereo not given)"
group = "no (0)"

[[record]]
molecule = "O=c1ccc2ccccc2o1"
group = "yes (1)"

[[record]]
molecule = "CC[C@H]1OC(=O)[C@H](C)[C@@H](O[C@H]2C[C@@](C)(OC)[C@@H](O)[C@H](C)O2)[C@H](C)[C@@H](O[C@@H]2O[C@H](C)C[C@H](N(C)C)[C@H]2O)[C@](C)(O)C[C@@H](C)CN(C)[C@H](C)[C@@H](O)[C@]1(C)O"
group = "no (0)"

[[record]]
molecule = "NCC1(CC(=O)O)CCCCC1"
group = "no (0)"

[[record]]
molecule = "COCCc1ccc(OCC(O)CNC(C)C)cc1 (stereo not given)"
group = "yes (1)"

[[record]]
molecule = "O=C1CN=C(c2ccccc2Cl)c2cc([N+](=O)[O-])ccc2N1"
group = "yes (1)"

[[record]]
molecule = "CS(=O)(=O)Nc1ccc(F)c([C@@H](O)CN)c1"
group = "no (0)"

[[record]]
molecule = "NS(=O)(=O)Cc1noc2ccccc12 [ZONISAMIDE]"
group = "no (0)"

[[record]]
molecule = "CCN[C@@H](C)Cc1cccc(C(F)(F)F)c1"
group = "yes (1)"

[[record]]
molecule = "NS(=O)(=O)c1cc(C(=O)O)c(NCc2ccco2)cc1Cl [FUROSEMIDE]"
group = "no (0)"

[[record]]
molecule = "N[C@@H]1[C@H]2CN(c3nc4c(cc3F)c(=O)c(C(=O)O)cn4-c3ccc(F)cc3F)C[C@@H]12"
group = "yes (1)"

